All values here come from paper PMC2916072.

Target: Met receptor tyrosine kinase (Homo sapiens, UniProt P08581)
Sequence (P08581 25-307): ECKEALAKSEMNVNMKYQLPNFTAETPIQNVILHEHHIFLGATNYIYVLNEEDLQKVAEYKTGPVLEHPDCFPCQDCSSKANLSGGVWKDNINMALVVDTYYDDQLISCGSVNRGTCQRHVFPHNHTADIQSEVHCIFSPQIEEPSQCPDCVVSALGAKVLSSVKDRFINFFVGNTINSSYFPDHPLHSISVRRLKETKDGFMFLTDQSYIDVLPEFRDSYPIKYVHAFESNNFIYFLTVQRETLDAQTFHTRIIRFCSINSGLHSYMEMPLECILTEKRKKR
Sequence (P08581 308-1390): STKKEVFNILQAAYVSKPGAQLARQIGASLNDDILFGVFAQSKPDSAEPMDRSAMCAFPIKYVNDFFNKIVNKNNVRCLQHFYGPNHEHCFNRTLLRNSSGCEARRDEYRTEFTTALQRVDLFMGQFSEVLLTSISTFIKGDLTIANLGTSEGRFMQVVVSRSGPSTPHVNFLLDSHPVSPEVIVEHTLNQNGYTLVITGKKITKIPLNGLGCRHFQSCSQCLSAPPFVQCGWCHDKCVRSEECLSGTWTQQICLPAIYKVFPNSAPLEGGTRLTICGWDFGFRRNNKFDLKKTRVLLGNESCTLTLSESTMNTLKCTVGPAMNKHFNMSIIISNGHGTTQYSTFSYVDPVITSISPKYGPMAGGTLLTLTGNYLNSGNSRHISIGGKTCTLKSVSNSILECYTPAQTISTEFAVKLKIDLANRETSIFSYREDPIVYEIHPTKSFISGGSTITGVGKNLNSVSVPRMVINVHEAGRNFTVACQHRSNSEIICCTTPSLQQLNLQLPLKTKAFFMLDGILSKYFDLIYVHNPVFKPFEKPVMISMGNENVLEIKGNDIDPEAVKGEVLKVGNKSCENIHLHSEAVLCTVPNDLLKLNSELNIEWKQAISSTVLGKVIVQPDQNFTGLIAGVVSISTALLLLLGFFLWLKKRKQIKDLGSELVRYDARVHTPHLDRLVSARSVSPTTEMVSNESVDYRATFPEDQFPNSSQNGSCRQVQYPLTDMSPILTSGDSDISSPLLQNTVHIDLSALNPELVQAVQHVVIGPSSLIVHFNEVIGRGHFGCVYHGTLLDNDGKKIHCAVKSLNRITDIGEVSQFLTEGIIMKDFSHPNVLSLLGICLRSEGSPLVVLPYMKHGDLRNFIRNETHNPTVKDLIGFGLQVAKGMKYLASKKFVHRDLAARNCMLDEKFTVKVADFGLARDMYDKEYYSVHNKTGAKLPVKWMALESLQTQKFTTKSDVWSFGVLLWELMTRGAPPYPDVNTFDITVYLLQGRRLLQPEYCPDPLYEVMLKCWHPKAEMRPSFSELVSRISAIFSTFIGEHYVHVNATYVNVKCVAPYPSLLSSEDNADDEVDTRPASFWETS
Test: phospho-Met
readout_kind: IC50 (nM)
The reply should contain only the number, in nM.

Input: Indicate the recorded IC50 value for this compound: "Cc1[nH]c(/C=C2\C(=O)Nc3ccc(S(=O)(=O)N(C)c4cccc(Cl)c4)cc32)c(C)c1C(=O)N1CCN(C)CC1"
Output: 50
